- tgt: Peroxisome proliferator-activated receptor gamma (Homo sapiens)
- Sequence (P37231 whole entry): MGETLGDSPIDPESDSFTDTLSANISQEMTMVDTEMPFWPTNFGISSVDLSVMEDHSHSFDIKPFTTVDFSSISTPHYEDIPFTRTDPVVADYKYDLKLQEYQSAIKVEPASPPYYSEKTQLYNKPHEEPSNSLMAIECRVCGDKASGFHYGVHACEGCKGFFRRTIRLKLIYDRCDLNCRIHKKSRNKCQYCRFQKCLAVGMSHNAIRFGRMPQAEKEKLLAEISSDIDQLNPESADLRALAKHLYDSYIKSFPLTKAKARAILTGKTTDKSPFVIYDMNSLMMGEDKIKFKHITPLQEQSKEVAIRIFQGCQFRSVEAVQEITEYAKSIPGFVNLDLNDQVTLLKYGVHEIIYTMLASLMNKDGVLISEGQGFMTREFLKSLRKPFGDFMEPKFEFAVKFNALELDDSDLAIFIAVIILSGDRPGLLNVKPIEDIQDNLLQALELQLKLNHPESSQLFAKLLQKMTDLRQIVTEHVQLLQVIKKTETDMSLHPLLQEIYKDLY
Attribute: EC50
# value in nM; strip the unit string

In the examples that follow, each entry is paired with its recorded EC50.
Task item: Identify measured EC50 corresponding to CC(C)(Oc1ccc(CCNC(=O)c2ccc(Cl)cc2)cc1)C(=O)O [BEZAFIBRATE]
Reply: 57200

Task item: Look up EC50 of CC/C(=N\OCc1sc(-c2ccc(C(F)(F)F)cc2)nc1C)c1ccc(OCC(=O)O)c(C)c1 and report it.
Reply: 800

Task item: Give EC50 for the following compound: Cc1cc(/C(=N/OCc2sc(-c3ccc(C(F)(F)F)cc3)nc2C)C2CCCCC2)ccc1OCC(=O)O
Reply: 1000

Task item: Answer with reported EC50 of C/C(=N\OCc1nc(-c2ccccc2)oc1C)c1ccc(OCC(=O)O)c(C)c1
Reply: 300

---
Task item: Please supply the value of reported EC50 for the item C/C(=N\OCc1sc(-c2ccc(C(F)(F)F)cc2)nc1C)c1ccc(OCC(=O)O)c(C)c1
Reply: 6

Task item: Give EC50 for C/C(=N\OCc1nc(-c2ccc(C)cc2)oc1C)c1ccc(OCC(=O)O)c(C)c1
Reply: 400
